System: Plasmodium falciparum
assaySummary: Antimalarial activity against chloroquine-resistant Plasmodium falciparum K1 in human red blood cells after 48 hrs
Assay type: functional
experimentalParameters: K1, 48 h, read-out: ED50 (the source's name)
pEC50: −log10 of the molar value.
attributeMeasured: pEC50

1. Cn1cncc1CN1C(=O)C(N(Cc2ccc(S(C)(=O)=O)cc2)S(=O)(=O)c2ccccn2)Cc2cc(C#N)cnc21 (stereo not drawn)	< 5.30
2. Cn1cnc(S(=O)(=O)NC2Cc3cc(Br)cnc3N(Cc3cncn3C)C2=O)c1 (stereo not drawn)	< 5.30
3. Cn1cnc(S(=O)(=O)NC2Cc3cc(C#N)cnc3N(Cc3cncn3C)C2=O)c1 (stereo not drawn)	< 5.30
